Data credit: patent US8906908B2

- Tested on: Male Institute of Cancer Research (ICR) mice
- procedure summary: Tail-flick test, blockade of nicotine-induced antinociception
- Type: in vivo
- experimental setup: Mus musculus, 5 min, mice; pretreatment 15 min before nicotine 2.5 mg/kg s.c.; tested 5 min after nicotine; read-out: AD50 Tail-flick
measured attribute: ED50
Kindly report the value followed by its unit.

The examples below pair each entry with its known result.
{"smiles notation": "CCC[C@@H]1NC(C)(C)CO[C@@]1(O)c1cccc(Cl)c1", "ED50": "4 µg/kg"}
{"smiles notation": "C[C@@H]1NC(C)(C)CO[C@@]1(O)c1cc(F)cc(F)c1", "ED50": "5.6 µg/kg"}

Turning to the following compound.
Need ED50 of `C[C@@H]1NC(C)(C)CO[C@@]1(O)c1ccc(Cl)cc1` , thanks.
19 µg/kg
